TARGET_OF_ASSAY: CFTR (Homo sapiens)
Sequence (P13569 with tags, fused parts or gaps DEL508-508): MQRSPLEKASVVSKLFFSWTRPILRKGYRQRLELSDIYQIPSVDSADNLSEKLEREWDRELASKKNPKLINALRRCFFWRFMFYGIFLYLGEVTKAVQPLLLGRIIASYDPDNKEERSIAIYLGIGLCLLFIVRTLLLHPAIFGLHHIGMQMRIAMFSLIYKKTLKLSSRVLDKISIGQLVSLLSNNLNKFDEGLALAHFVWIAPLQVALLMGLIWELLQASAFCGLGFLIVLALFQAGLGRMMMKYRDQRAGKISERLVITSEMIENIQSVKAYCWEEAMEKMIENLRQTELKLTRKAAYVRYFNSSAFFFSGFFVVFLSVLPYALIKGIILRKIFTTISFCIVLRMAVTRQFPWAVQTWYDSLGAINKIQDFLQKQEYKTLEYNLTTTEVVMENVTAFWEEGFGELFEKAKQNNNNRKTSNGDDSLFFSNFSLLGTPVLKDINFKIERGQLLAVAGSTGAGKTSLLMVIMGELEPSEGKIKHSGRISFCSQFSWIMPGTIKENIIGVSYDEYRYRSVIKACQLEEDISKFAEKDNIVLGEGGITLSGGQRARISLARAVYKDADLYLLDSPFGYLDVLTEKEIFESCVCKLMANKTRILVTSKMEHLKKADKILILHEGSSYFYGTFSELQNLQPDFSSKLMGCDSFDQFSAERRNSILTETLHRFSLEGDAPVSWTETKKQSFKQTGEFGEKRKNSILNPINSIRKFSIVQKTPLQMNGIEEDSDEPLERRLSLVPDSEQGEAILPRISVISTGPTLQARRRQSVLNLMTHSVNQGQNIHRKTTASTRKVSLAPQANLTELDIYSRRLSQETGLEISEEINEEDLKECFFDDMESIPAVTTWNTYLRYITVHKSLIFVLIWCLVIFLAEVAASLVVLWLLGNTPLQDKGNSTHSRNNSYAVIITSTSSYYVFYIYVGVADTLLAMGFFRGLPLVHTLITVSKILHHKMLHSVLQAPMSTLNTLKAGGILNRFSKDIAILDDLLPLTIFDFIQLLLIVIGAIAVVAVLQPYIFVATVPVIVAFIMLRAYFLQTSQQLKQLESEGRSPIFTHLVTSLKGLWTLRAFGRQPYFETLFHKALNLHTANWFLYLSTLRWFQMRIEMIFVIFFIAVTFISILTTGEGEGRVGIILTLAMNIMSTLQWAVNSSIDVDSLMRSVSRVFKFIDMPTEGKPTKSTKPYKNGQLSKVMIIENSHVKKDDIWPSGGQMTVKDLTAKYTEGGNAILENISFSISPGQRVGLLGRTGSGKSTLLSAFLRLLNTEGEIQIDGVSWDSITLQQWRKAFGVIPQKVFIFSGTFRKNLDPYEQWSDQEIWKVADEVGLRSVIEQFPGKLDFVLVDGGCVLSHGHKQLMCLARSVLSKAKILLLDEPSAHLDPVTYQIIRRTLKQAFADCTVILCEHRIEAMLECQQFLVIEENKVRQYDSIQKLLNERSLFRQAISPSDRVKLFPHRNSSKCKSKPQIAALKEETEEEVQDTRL
PROTOCOL_NOTES: Membrane potential dye, Enteroid Assay B
Type: cell-based
CONDITION_PARAMETERS: Table 9; read-out: Ent. B EC50
pEC50: −log10 of the molar value.
Field: pEC50. Provide a value for each of the molecules that follow.

Use these answered entries as a reference point.
MOLECULE: Cc1cccc(C)c1-c1cc2nc(n1)NS(=O)(=O)c1cccc(c1)C(=O)N(Cc1ncccc1C(C)(C)O)[C@H](CC(C)(C)C)CO2
pEC50: > 6.00

MOLECULE: Cc1cccc(C)c1-c1cc2nc(n1)NS(=O)(=O)c1cccc(c1)C(=O)N(CCS(C)(=O)=O)[C@H](CC(C)C)CO2
pEC50: > 6.00

MOLECULE: CC(=O)Nc1cccnc1CN1C(=O)c2cccc(c2)S(=O)(=O)Nc2nc(cc(-c3c(C)cccc3C)n2)OC[C@H]1CC(C)(C)C
pEC50: > 6.00

Hey, quick one: what's pEC50 for each of these?
1. Cc1cccc(C)c1-c1cc2nc(n1)NS(=O)(=O)c1cccc(c1)C(=O)N(C[C@H]1CC[C@@H](C(C)(C)O)CC1)[C@H](CC(C)(C)C)CO2
2. Cc1cccc(C)c1-c1cc2nc(n1)NS(=O)(=O)c1cccc(c1)C(=O)N(Cc1ncc(Cl)cn1)[C@H](CC(C)(C)C)CO2
3. Cc1cccc(C)c1-c1cc2nc(n1)NS(=O)(=O)c1cccc(c1)C(=O)N(CC13CC(C(C)(C)O)(C1)C3)[C@H](CC(C)(C)C)CO2
4. Cc1cccc(C)c1-c1cc2nc(n1)NS(=O)(=O)c1cccc(c1)C(=O)N(CC1CC(O)(Cc3ccccc3)C1)[C@H](CC(C)(C)C)CO2 (single isomer, unassigned) [Compound 67]

> 6.00
> 6.00
> 6.00
> 6.00
